# Target of assay: T1, recombinant receptor human IL-10Ra protein (human, UniProt Q13651 22-235)
# T1 chain: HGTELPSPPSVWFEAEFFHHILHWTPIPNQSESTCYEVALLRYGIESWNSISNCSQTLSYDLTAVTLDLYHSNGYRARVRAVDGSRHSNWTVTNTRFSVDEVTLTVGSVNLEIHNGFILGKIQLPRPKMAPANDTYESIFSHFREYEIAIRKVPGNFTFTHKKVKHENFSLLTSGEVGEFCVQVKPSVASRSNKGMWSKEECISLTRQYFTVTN
# Procedure summary: BLI; steady-state analysis
Measured metric: pKd
Field pKd (float): negative decimal logarithm of the concentration in molar.

Some solved cases for reference:
NMLRDLRDAFSRVKTFFQMKDQLDN (human IL-10; also called original peptide; source: synthetic peptide (GeneMark, GMbiolab Co., solid-phase)) [NM25 peptide]: 6.26
NMLRDLRDAFSRVKTFFQMK (truncation of NM25 (five C-terminal residues removed); stretch of human IL-10; source: synthetic peptide (GeneMark, GMbiolab Co., solid-phase)) [NK20 peptide]: 6.59
Human interleukin-10 (IL-10) (ligand, UniProt P22301 19-178, looked up, Interleukin-10, human; the methods of the BLI describe only the peptides as analytes; also called IL-10 cytokine) SPGQGTQSENSCTHFPGNLPNMLRDLRDAFSRVKTFFQMKDQLDNLLLKESLLEDFKGYLGCQALSEMIQFYLEEVMPQAENQDPDIKAHVNSLGENLKTLRLRLRRCHRFLPCENKSKAVEQVKNAFNKLQEKGIYKAMSEFDIFINYIEAYMTMKIRN: 6.00

Then this binder:
For record NMLRNLRNAFSRVKTFFQMK (NK20 with two Asp replaced by Asn; stretch of human IL-10; source: synthetic peptide (GeneMark, GMbiolab Co., solid-phase)) [NK20a peptide] the listed pKd is 6.82

Origin of values: paper PMC10724200
